# tgt: mu receptor (Mus musculus)
# Construct: Five CF-1 male mice (Charles River, Portage, Mich.); from tissue; host or cells: whole living CF-1 male mice (in vivo)
# Sequence (P42866 whole entry): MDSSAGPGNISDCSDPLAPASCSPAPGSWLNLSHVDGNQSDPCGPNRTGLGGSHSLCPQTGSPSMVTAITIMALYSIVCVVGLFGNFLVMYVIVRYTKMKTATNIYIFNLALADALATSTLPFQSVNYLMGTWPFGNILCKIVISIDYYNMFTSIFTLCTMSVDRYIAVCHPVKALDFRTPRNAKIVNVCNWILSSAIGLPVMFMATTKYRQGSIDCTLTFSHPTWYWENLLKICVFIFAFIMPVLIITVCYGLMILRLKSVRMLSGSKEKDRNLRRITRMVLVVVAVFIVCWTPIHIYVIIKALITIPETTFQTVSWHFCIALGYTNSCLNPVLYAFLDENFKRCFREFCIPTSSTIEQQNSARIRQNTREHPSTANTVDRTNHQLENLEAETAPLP
# procedure text: Mouse writhing assay, antagonism of morphine analgesia (mu)
# Assay type: in vivo, CF-1 male mice
# test conditions: sc, read-out: Mu AD50
Counter-ions that a name gives are not always drawn.
reported metric: log10 ED50 (log10 of the value in mg/kg)

compound="C[C@H]1CN(CCCc2cccs2)CC[C@@]1(C)c1cccc(O)c1 (stereo in doubt) [Example 36]" readout_number=-1.30
compound="CC1CN(CCC(=O)C2CCCCC2)CCC1(C)c1cccc(O)c1 (centres unmarked) [Example 33, hydrochloride]" readout_number=-0.92
compound="C[C@H]1CN(CCC(=O)c2ccccc2)CC[C@@]1(C)c1cccc(O)c1 (relative stereo) [Compound C, reference compound]" readout_number=-0.85
compound="CC1CN(CCCc2ccsc2)CCC1(C)c1cccc(O)c1 (centres unmarked) [Example 41, hydrochloride]" readout_number=-0.92
compound="CC1CN(CCCC2CCCC2)CCC1(C)c1cccc(O)c1 (centres unmarked) [Example 9, hydrochloride]" readout_number=-0.92
compound="CC(C)CCN1CCC(C)(c2cccc(O)c2)C(C)C1 (centres unmarked) [Example 16, hydrochloride]" readout_number=-0.06
compound="CC1CN(CCC2CCCCC2)CCC1(C)c1cccc(O)c1 (centres unmarked) [Example 13, hydrochloride]" readout_number=-1.00
compound="C=C(C)CCCN1CCC(C)(c2cccc(O)c2)C(C)C1 (centres unmarked) [Example 3, hydrochloride]" readout_number=-1.10
